- System: T47D wild-type breast cancer cells
- measurement-protocol: xCELLigence real-time killing assay (impedance)
- Format: cell-based, human
- condition: after 120 hours
assay-metric: concentration showing potent / effective / comparable killing (nM)

[
  {
    "molecule": "MN20A10-MMAF (conjugate) VH: QVQLVESGGGLVKPGGSLRLSCAASGFTFSTYAMSWIRQAPGKGLEWVASIGRAGSTYYSDSVKGRFTISRDNAKNSLYLQMNSLRAEDTAVYYCARGPIYNDYDEFAYWGQGTLVTVSS VL: EIVLTQSPATLSLSPGERATLSCKSSQSVLYSSNQKNYLAWYQQKPGQAPRLLIYWASTRESGIPARFSGSGSGTDFTLTISSLEPEDFAVYYCHQYLSSLTFGGGTKVEIKR",
    "reading": 167
  }
]
